B1: WDFY1 (parent)
chain: FWNIKQMWDTKTLGLRQHHCRKCG

Variants of: B1
Assay comment: protein stability index of a GFP-peptide fusion (GPS, HEK-293T) (PSI 1-6); higher = more stable;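 also: lentivirally expressed fusions sorted by FACS into six bins by GFP to DsRed ratio, PSI derived from sequencing read proportions per bin multiplied by bin number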
Measurement setup: c terminus: a fixed tail appended

Seq	protein stability index
FWNIKQMWDTKTLGLPQHHCRKCG [R16P]	1.8
FWRIKQMWDTKTLGLRQHHCRKCG [N3R]	2.13
FWNIKQMWDTKTLGLRQSHCRKCG [H18S]	2.58
FWNIKQMWDTKTLGLRQTHCRKCG [H18T]	3.16
